molecular target: Ribosome; experiment: Binding affinity to ribosome in reticulocyte lysate assessed as inhibition of transcription-translational activity by luciferase assay
What pIC50 was measured for each of the following?
Answers are plain numbers, as −log10 of the molar value.

Example entries and their recorded answers appear below.
N[C@@H]1C[C@H](N)[C@@]2(CC[C@H](O)[C@H](O)CO2)[C@H](O)[C@H]1O = 3.89
NC[C@H]1O[C@H](O[C@H]2[C@H](O)[C@@H](O)[C@H](N)C[C@@H]2N)[C@H](N)[C@@H](O)[C@@H]1O = 3.92
NC[C@@H]1O[C@H](O[C@H]2[C@@H](O)[C@H](O[C@@H]3[C@@H](O)[C@H](N)C[C@H](N)[C@H]3O[C@H]3O[C@H](CN)[C@@H](O)[C@H](O)[C@H]3N)O[C@@H]2CO)[C@H](N)[C@@H](O)[C@@H]1O = 3.60

Proceeding to the next compound to report its pIC50.
**Q:** Could you tell me which pIC50 is on file for `N[C@@H]1C[C@H](N)[C@@]2(CC[C@@H](O)[C@@H](O)CO2)[C@H](O)[C@H]1O` ?
**A:** 3.80
